These measurements were taken from ChEMBL document CHEMBL6121013.

- EXPERIMENTAL PROTOCOL: Half life in male CD1 mouse at 2 mg/kg, iv by LC-MS analysis
- Format: ADME, organism-based
- PARTICULARS: in vivo
VALUE KIND: half-life (h)
Give your result in h as a bare value.

// recorded half-life for Cc1[nH]c2c(c(=O)c1-c1ccc(Cl)cc1)CC(F)(F)CC2 : 6.39

----------
- EXPERIMENTAL PROTOCOL: Plasma protein binding in human assessed as free fraction incubated for 6 hrs by LC-MS/MS analysis
- Assay type: ADME, cell-free
Some compounds, each annotated with its measured fraction unbound at 6 h.
Reply: number alone, nothing else.

// recorded fraction unbound at 6 h for Cc1[nH]c2ccccc2c(=O)c1-c1ccc(Oc2ccc(OC(F)(F)F)cc2)cc1 : 0.0009

---
// recorded fraction unbound at 6 h for Cc1[nH]c2c(c(=O)c1-c1ccc(Oc3ccc(OC(F)(F)F)cc3)cc1)COCC2 : 0.0065

// recorded fraction unbound at 6 h for Cc1[nH]c2c(c(=O)c1-c1ccc(Cl)cc1)CC(F)(F)CC2 : 0.12

// recorded fraction unbound at 6 h for Cc1[nH]c2c(c(=O)c1-c1ccc(F)cc1)CC(F)(F)CC2 : 0.3

// recorded fraction unbound at 6 h for Cc1[nH]c2c(c(=O)c1-c1ccc(Oc3ccc(OC(F)(F)F)cc3)cc1)CCCC2 : 0.0013

// recorded fraction unbound at 6 h for Cc1[nH]c2c(c(=O)c1-c1ccc(Oc3ccc(OC(F)(F)F)cc3)cc1)CC(F)(F)CC2 : 0.0029

// recorded fraction unbound at 6 h for Cc1[nH]c2c(c(=O)c1-c1ccc(OC(F)(F)F)cc1)CCCC2 : 0.15
